Would you mind telling me the reported protein stability index of each entry?
B1: FBXO39 (parent)
chain: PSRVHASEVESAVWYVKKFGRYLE

variants of: B1; assay: protein stability index of a GFP-peptide fusion (GPS, HEK-293T) (PSI 1-6); higher = more stable; conditions: c terminus: a fixed tail appended;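 also: lentivirally expressed fusions sorted by FACS into six bins by GFP to DsRed ratio, PSI derived from sequencing read proportions per bin multiplied by bin number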

Req: // protein stability index lookup, key: `V16C`
Resp: 2.65

Req: protein stability index lookup needed for `E10N` , thanks.
Resp: 1.66

Req: Look at this variant and give its reported protein stability index. `A6E`
Resp: 2.32

Req: Give the measured protein stability index of `P1K` .
Resp: 2.21

Req: Item under review: `S7R` . Reported protein stability index?
Resp: 1.48

Req: I have this variant here, `K17I` , and I need its recorded protein stability index.
Resp: 2.39

Req: Report protein stability index for `R3Q` please.
Resp: 2.46

Req: What value of protein stability index has been reported for the following variant? `S2T`
Resp: 2.31

Req: Given the entry `R3E` , report its measured protein stability index.
Resp: 2.04

Req: # query: protein stability index of entry `L23Y`
Resp: 2.53

Req: What value of measured protein stability index is listed for `A6P` ?
Resp: 1.82

Req: Request the reported protein stability index associated with `F19T`
Resp: 2.55

Req: protein stability index lookup needed for `K17D` , thanks.
Resp: 2.25

Req: Query: protein stability index; subject: `W14V`
Resp: 2.64

Req: # lookup: protein stability index of `W14I`
Resp: 2.38

Req: For the variant `V4M` , what protein stability index is on record?
Resp: 1.97

Req: Looking for the measured protein stability index of `Y15D` , can you help?
Resp: 3.73

Req: Which protein stability index value is on record for `R21G` ?
Resp: 2.42

Req: Given `Y22G` , state its recorded protein stability index.
Resp: 2.85

Req: Request the reported protein stability index associated with `A6M`
Resp: 1.27

Req: Give the measured protein stability index of `H5V` .
Resp: 1.68

Req: Reported protein stability index for `Y22P` : what is it?
Resp: 2.67

Req: Reported protein stability index, variant `E24H` : ____
Resp: 1.94

Req: State the recorded protein stability index for this entry: `G20Y`
Resp: 1.46

Req: Entry under review: `E24Y` . Reported protein stability index?
Resp: 2.2

Req: // protein stability index lookup, key: `A6Y`
Resp: 1.58

Req: State the recorded protein stability index for this entry: `H5I`
Resp: 1.39

Req: Look up protein stability index for this variant: `E8N`
Resp: 1.56

Req: Can you look up the measured protein stability index of `R3W` for me?
Resp: 2.4

Req: Fill in: protein stability index of `G20I` is ___
Resp: 1.91

Req: Look up protein stability index: `A6S`
Resp: 2.72

Req: Look up protein stability index for this variant: `Y15S`
Resp: 2.4

Req: What value of measured protein stability index is listed for `W14R` ?
Resp: 2.58

Req: Requested read-out: protein stability index. Entry: `R3N`
Resp: 2.19

Req: What protein stability index value was documented for this variant, `A6H` ?
Resp: 1.76

Req: Look up protein stability index for this variant: `K17F`
Resp: 1.87

Req: Which value of protein stability index has been reported for `R21F` in the records?
Resp: 1.9

Req: Need protein stability index of `R3M` , thanks.
Resp: 2.54

Req: What measured protein stability index goes with `Y22K` ?
Resp: 3.58

Req: // returns reported protein stability index for input `S2V`
Resp: 1.46

Req: // lookup protein stability index for `E8A`
Resp: 3.81

Req: // lookup protein stability index for `S11L`
Resp: 1.99

Req: Quick one: protein stability index of `V16N` ?
Resp: 3.18

Req: Item under review: `K18Q` . Reported protein stability index?
Resp: 1.75

Req: Given `V4L` , state its recorded protein stability index.
Resp: 2.22

Req: Can you share its protein stability index? I mean this variant: `E10D`
Resp: 1.84
